Molecular target: Recombinant human his-tagged IGF 1R extracellular domain protein (human) (UniProt P08069)
Assay: SPR, captured IgG, IGF-1R ECD-his analyte, dissociation pH 6
Task for the reader: assign each of the following binders its reported pKd.
Answers are plain numbers, as −log10 of the molar value.

Use these answered entries as a reference point.
VRDN-02570 (antibody, V domains shown) VH: EVQLVQSGGGLVKPGGSLRLSCAASGFTFSSFHMHWVRQAPGKGLEWISVIDTRGATYYADSVKGRFTISRDNAKNSLYLQMNSLRAEDTAVYYCARLGNFYYGHDVWGQGTTVTVSS VL: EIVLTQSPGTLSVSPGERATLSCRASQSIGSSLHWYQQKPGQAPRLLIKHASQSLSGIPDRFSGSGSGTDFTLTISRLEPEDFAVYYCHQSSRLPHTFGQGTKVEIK : 8.75
VRDN-02555 (antibody, V domains shown) VH: EVQLVQSGGGLVKPGGSLRLSCAASGFTFSSFAMHWVRQAPGKGLEWISVIDTRGATYYADSVKGRFTISRDNAKNSLYLQMNSLRAEDTAVYYCHRLGNFYYGMDVWGQGTTVTVSS VL: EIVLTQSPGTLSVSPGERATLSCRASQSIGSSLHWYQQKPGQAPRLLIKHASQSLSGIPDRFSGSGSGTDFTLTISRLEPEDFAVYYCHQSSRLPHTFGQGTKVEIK : 9.07

q: Recorded pKd for VRDN-02519 (antibody, V domains shown) VH: EVQLVQSGGGLVKPGGSLRLSCAASGFTFSSFAMHWVRQAPGKGLEWISVIDTRGATYYADSVKGRFTISRDNAKNSLYLQMNSLRAEDTAVYYCARLHNFYYGMDVWGQGTTVTVSS VL: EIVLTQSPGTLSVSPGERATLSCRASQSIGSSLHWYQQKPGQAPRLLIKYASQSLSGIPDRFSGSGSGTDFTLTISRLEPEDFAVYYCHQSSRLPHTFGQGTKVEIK , please?
a: 7.77

The measurements presented in this section are drawn from patent US20240343814A1.
